Reported values of MTT for individual entries
- Tested on: cellular dehydrogenase activity
- conditionInfo: composite Z-score vs mock-treated (DMSO) wells; concentration of each compound in μM
measureName: MTT

compound="CC(C)c1c(O)ccc2c1CCC1C(C)(C(=O)O)CCCC21C (stereo not drawn)" quantitativereadout=−1.701
compound=COc1ccc(-c2cc(=O)c3c(OC)cc(OC)c(-c4cc(-c5cc(=O)c6c(OC)cc(OC)cc6o5)ccc4OC)c3o2)cc1 quantitativereadout=−0.744
compound="C[C@@H]1[C@H](O)[C@@H](C)/C=C/C=C/CC/C=C/C=C/C=C/C=C/C(O[C@H]2O[C@H](C)[C@@H](O)[C@H](N)[C@@H]2O)CC2O[C@](O)(CC(O)C(O)CCC(O)CC(O)CC(O)CC(=O)O[C@H]1C)CC(O)C2C(=O)O (stereo partly drawn)" quantitativereadout=−1.147
